Ref: patent US20200223889A1

system: human melanocortin 4 receptor (human, UniProt P32245 1-332)
Sequence (P32245 whole entry): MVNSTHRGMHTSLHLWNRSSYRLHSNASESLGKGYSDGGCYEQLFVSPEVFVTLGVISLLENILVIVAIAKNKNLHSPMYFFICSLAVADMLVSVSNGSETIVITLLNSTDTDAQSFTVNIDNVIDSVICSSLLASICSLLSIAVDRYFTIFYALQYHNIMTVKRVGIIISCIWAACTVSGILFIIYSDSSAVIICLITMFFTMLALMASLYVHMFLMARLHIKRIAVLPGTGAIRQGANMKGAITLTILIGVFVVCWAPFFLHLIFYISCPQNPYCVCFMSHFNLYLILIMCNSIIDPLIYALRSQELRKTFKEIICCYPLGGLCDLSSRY
measurement-protocol: cell-based or functional assay
Positions of bridges follow the written chain, without caps; N, C: chain ends. Non-standard residues stand in square brackets, D forms with d. Pro(trans-4-guanidino) = N=C(N)N[C@H]1CN[C@H](C(=O)O)C1; Hyp = O=C(O)[C@@H]1C[C@@H](O)CN1; Pen = CC(C)(S)[C@H](N)C(=O)O; Orn = NCCC[C@H](N)C(=O)O; Thz = O=C(O)[C@@H]1CSCN1

{"binder": "cyclo(CAH[dF]HWCAKKKW) (disulfide 1-7; SMILES C[C@@H]1NC(=O)[C@@H]2CSSC[C@H](NC(=O)[C@H](Cc3c[nH]c4ccccc34)NC(=O)[C@H](Cc3c[nH]cn3)NC(=O)[C@@H](Cc3ccccc3)NC(=O)[C@H](Cc3c[nH]cn3)NC1=O)C(=O)N[C@@H](C)C(=O)N[C@@H](CCCCN)C(=O)N[C@@H](CCCCN)C(=O)N[C@@H](CCCCN)C(=O)N[C@@H](Cc1c[nH]c3ccccc13)C(=O)N2, also called c[c[Cys-Ala-His-D-Phe-His-Trp-Cys]-Ala-Lys-Lys-Lys-Trp]) [Chem. 60]", "MC4R cAMP EC50": "0.17 nM"}
{"binder": "cyclo(C[dP]H[dF]HWCAKKKW) (disulfide 1-7, also called c[c[Cys-D-Pro-His-D-Phe-His-Trp-Cys]-Ala-Lys-Lys-Lys-Trp]) [Chem. 98]", "MC4R cAMP EC50": "2.7 nM"}
{"binder": "cyclo(CAH[dF][Pro(trans-4-guanidino)]WCAH[dF][Pro(trans-4-guanidino)]W) (disulfide 1-7; SMILES C[C@@H]1NC(=O)[C@@H]2CSSC[C@H](NC(=O)[C@H](Cc3c[nH]c4ccccc34)NC(=O)[C@@H]3C[C@@H](NC(=N)N)CN3C(=O)[C@@H](Cc3ccccc3)NC(=O)[C@H](Cc3c[nH]cn3)NC1=O)C(=O)N[C@@H](C)C(=O)N[C@@H](Cc1c[nH]cn1)C(=O)N[C@H](Cc1ccccc1)C(=O)N1C[C@H](NC(=N)N)C[C@H]1C(=O)N[C@@H](Cc1c[nH]c3ccccc13)C(=O)N2, also called c[c[Cys-Ala-His-D-Phe-4trans-GuaPro-Trp-Cys]-Ala-His-D-Phe-4trans-GuaPro-Trp]) [Chem. 28]", "MC4R cAMP EC50": "518 nM"}
{"binder": "CAHFXWCAHFXW (D-Phe 4, 10; N-MeArg 5, 11; disulphide Cys1-Cys7; head-to-tail amide Cys1-Trp12, also called c[c[Cys-Ala-His-D-Phe-N-MeArg-Trp-Cys]-Ala-His-D-Phe-N-MeArg-Trp]) [Chem. 37]", "MC4R cAMP EC50": "1.57 nM"}
{"binder": "cyclo(C[dK]H[dF]HWCAKKKW) (disulfide 1-7; SMILES C[C@@H]1NC(=O)[C@@H]2CSSC[C@H](NC(=O)[C@H](Cc3c[nH]c4ccccc34)NC(=O)[C@H](CCCCN)NC(=O)[C@H](CCCCN)NC(=O)[C@H](CCCCN)NC1=O)C(=O)N[C@H](CCCCN)C(=O)N[C@@H](Cc1c[nH]cn1)C(=O)N[C@H](Cc1ccccc1)C(=O)N[C@@H](Cc1c[nH]cn1)C(=O)N[C@@H](Cc1c[nH]c3ccccc13)C(=O)N2, also called c[c[Cys-D-Lys-His-D-Phe-His-Trp-Cys]-Ala-Lys-Lys-Lys-Trp]) [Chem. 84]", "MC4R cAMP EC50": "0.59 nM"}
{"binder": "cyclo(C[Hyp]H[dF]HWCAKKKW) (disulfide 1-7; SMILES C[C@@H]1NC(=O)[C@@H]2CSSC[C@H](NC(=O)[C@H](Cc3c[nH]c4ccccc34)NC(=O)[C@H](CCCCN)NC(=O)[C@H](CCCCN)NC(=O)[C@H](CCCCN)NC1=O)C(=O)N1C[C@H](O)C[C@H]1C(=O)N[C@@H](Cc1c[nH]cn1)C(=O)N[C@H](Cc1ccccc1)C(=O)N[C@@H](Cc1c[nH]cn1)C(=O)N[C@@H](Cc1c[nH]c3ccccc13)C(=O)N2, also called c[c[Cys-Hyp-His-D-Phe-His-Trp-Cys]-Ala-Lys-Lys-Lys-Trp]) [Chem. 70]", "MC4R cAMP EC50": "0.38 nM"}
{"binder": "cyclo(CPH[dF]HWCKKKKW) (disulfide 1-7, also called c[c[Cys-Pro-His-D-Phe-His-Trp-Cys]-Lys-Lys-Lys-Lys-Trp]) [Chem. 75]", "MC4R cAMP EC50": "0.44 nM"}
{"binder": "cyclo(C[Thz]H[dF]HWCAKKKR) (disulfide 1-7; SMILES C[C@@H]1NC(=O)[C@@H]2CSSC[C@H](NC(=O)[C@H](CCCNC(=N)N)NC(=O)[C@H](CCCCN)NC(=O)[C@H](CCCCN)NC(=O)[C@H](CCCCN)NC1=O)C(=O)N1CSC[C@H]1C(=O)N[C@@H](Cc1c[nH]cn1)C(=O)N[C@H](Cc1ccccc1)C(=O)N[C@@H](Cc1c[nH]cn1)C(=O)N[C@@H](Cc1c[nH]c3ccccc13)C(=O)N2, also called c[c[Cys-THAZ-His-D-Phe-His-Trp-Cys]-Ala-Lys-Lys-Lys-Arg]) [Chem. 100]", "MC4R cAMP EC50": "0.02 nM"}
{"binder": "cyclo(CA[Hyp][dF]RWCA[Hyp][dF]RW) (bridge 1-7 via methylene bridge (S-CH2-S), also called c[c[Cys-Ala-Hyp-D-Phe-Arg-Trp-Cys]-Ala-Hyp-D-Phe-Arg-Trp]; Note: methylene bridge) [Chem. 23]", "MC4R cAMP EC50": "3.26 nM"}
{"binder": "cyclo(C[Thz]H[dF]HWC[Orn][Orn]AAW) (disulfide 1-7; SMILES C[C@@H]1NC(=O)[C@H](C)NC(=O)[C@H](CCCN)NC(=O)[C@H](CCCN)NC(=O)[C@@H]2CSSC[C@H](NC(=O)[C@H](Cc3c[nH]c4ccccc34)NC1=O)C(=O)N1CSC[C@H]1C(=O)N[C@@H](Cc1c[nH]cn1)C(=O)N[C@H](Cc1ccccc1)C(=O)N[C@@H](Cc1c[nH]cn1)C(=O)N[C@@H](Cc1c[nH]c3ccccc13)C(=O)N2) [Chem. 116]", "MC4R cAMP EC50": "0.12 nM"}
{"binder": "cyclo(CPH[dF]HW[Pen]AKKKR) (disulfide 1-7; SMILES C[C@@H]1NC(=O)[C@H]2NC(=O)[C@H](Cc3c[nH]c4ccccc34)NC(=O)[C@H](Cc3c[nH]cn3)NC(=O)[C@@H](Cc3ccccc3)NC(=O)[C@H](Cc3c[nH]cn3)NC(=O)[C@@H]3CCCN3C(=O)[C@H](CSSC2(C)C)NC(=O)[C@H](CCCNC(=N)N)NC(=O)[C@H](CCCCN)NC(=O)[C@H](CCCCN)NC(=O)[C@H](CCCCN)NC1=O, also called c[c[Cys-Pro-His-D-Phe-His-Trp-Pen]-Ala-Lys-Lys-Lys-Arg]) [Chem. 93]", "MC4R cAMP EC50": "0.04 nM"}
